So I've got a bunch of compounds here, and I need their IC50 values.
test system: β-catenin/Tcf-4; experiment: cells; assay type: cell-based; conditions: Homo sapiens, SW480, 24 h, Tcf 33.13 cells derived from SW480; 24 hours of incubation with compound; ratio Firefly/Renilla luciferase
Provide the reading as a plain figure in nM.

Look at this compound and give its reported IC50. `CNc1nc(N[C@H](C)c2ccc(NC(=O)c3ccc(F)cc3)cc2)c2cccc(C)c2n1`
494

Look at this compound and give its reported IC50. `CNc1nc(NCc2ccc(NC(=O)c3ccc(Br)cc3)cc2)c2cccc(C)c2n1`
933

Look at this compound and give its reported IC50. `Cc1ccc2c(NCc3ccc(NC(=O)c4ccc(F)cc4)cc3)nc(N3CCN(c4ccccn4)CC3)nc2c1`
491

Look at this compound and give its reported IC50. `CN(C)c1ccc(-c2ccc3nc(N(C)C)nc(NCc4ccc(NC(=O)c5ccc(F)cc5)cc4)c3c2)cn1`
453

Look at this compound and give its reported IC50. `CNc1nc(NCc2ccc(NC(=O)c3ccc(Cl)cc3)cc2)c2cc(-c3ccco3)cc(C)c2n1`
1450

Look at this compound and give its reported IC50. `CNc1nc(NCc2ccc(NC(=O)c3ccc(F)cc3F)cc2)c2cc(C)ccc2n1`
3230

Look at this compound and give its reported IC50. `C/C=C\c1ccc2c(NCc3ccc(NC(=O)c4ccc(F)cc4)cc3)nc(N(C)C)nc2c1`
599

Look at this compound and give its reported IC50. `O=C(Nc1ccc(CNc2nc(N3CCOCC3)nc3ccccc23)cc1)c1ccc(F)cc1`
4480

* * *

So I've got a bunch of compounds here, and I need their IC50 values.
system: β-catenin/Tcf-4; experiment: cells; assay type: cell-based; conditions: Homo sapiens, SW480, 24 h, Tcf 33.13 cells derived from SW480; 24 hours of incubation with compound; ratio Firefly/Renilla luciferase
Provide the reading as a plain figure in nM.

Look at this compound and give its reported IC50. `CCN(CC)c1nc(NCc2ccc(NC(=O)C3CCN(Cc4ccc(F)cc4)CC3)cc2)c2cc(C(F)(F)F)ccc2n1`
3850

Look at this compound and give its reported IC50. `CNc1nc(NCc2ccc(NC(=O)c3ccc(Cl)c(Cl)c3)cc2)c2cc(C)ccc2n1`
5280

Look at this compound and give its reported IC50. `CNc1nc(NCc2ccc(NC(=O)c3ccc(Cl)nc3)cc2)c2cc(OC)c(OC)cc2n1`
1070

Look at this compound and give its reported IC50. `O=C(Nc1ccc(CNc2nc(N3CCC3)nc3ccc(C(F)(F)F)cc23)cc1)C1CCN(Cc2ccc(F)cc2)CC1`
3490

Look at this compound and give its reported IC50. `Cc1ccc2c(NCc3ccc(NC(=O)C4CCN(Cc5ccccc5F)CC4)cc3)nc(N(C)C)nc2c1`
332

Look at this compound and give its reported IC50. `CN(C)c1nc(NCc2ccc(NC(=O)C3CCN(Cc4ccc(F)cc4)CC3)cc2)c2cc(C(F)(F)F)ccc2n1`
4190

Look at this compound and give its reported IC50. `CNc1nc(NCc2ccc(NC(=O)C3CCN(Cc4ccccc4)CC3)cc2)c2cc(C)ccc2n1`
726

Look at this compound and give its reported IC50. `Cc1ccc2nc(N(C)C)nc(NCc3ccc(NC(=O)c4ccc(Cl)cc4)cc3)c2c1`
306

* * *

System: β-catenin/Tcf-4
Experiment: cells
Assay type: cell-based
Settings: Homo sapiens, SW480, 24 h, Tcf 33.13 cells derived from SW480; 24 hours of incubation with compound; ratio Firefly/Renilla luciferase
Experimental: Background cell line: SW480 colorectal carcinoma DNA constructs: 1) Tcf-4-Luc: Tcf-4 binding sites driving Firefly Luciferase in the pGL3 vector—to measure the activity of β-catenin/Tcf-4; […] Assay Readout: The luciferase signal was detected using a luciferase detection kit from Promega. […] Firefly substrate was then added and the resulting luminescence was immediately read on a CCD camera imaging device or a luminometer. […] Renilla luciferase was then quantified using the CCD camera or luminometer. […]
So I've got a bunch of molecules here, and I need their log10(IC50) values.
The figures below represent log10 of IC50, where IC50 is stated in nM.

Look at this molecule and give its reported log10(IC50). `CNc1nc(NCc2ccc(NC(=O)c3ccc(F)c(F)c3)cc2)c2cc(C)ccc2n1`
1.91

Look at this molecule and give its reported log10(IC50). `O=C(Nc1ccc(CNc2nc(N3CCCC3)nc3ccc(C(F)(F)F)cc23)cc1)C1CCN(Cc2ccc(F)cc2)CC1`
3.57

Look at this molecule and give its reported log10(IC50). `O=C(Nc1ccc(CNc2nc(N3CCC3)nc3ccc(C(F)(F)F)cc23)cc1)c1ccc(Cl)cc1`
3.35

Look at this molecule and give its reported log10(IC50). `Cc1ccc2nc(N(C)C)nc(NCc3ccc(NC(=O)Nc4ccc(Cl)cc4)cc3)c2c1`
2.39

Look at this molecule and give its reported log10(IC50). `CC(C)c1ccc2c(NCc3ccc(NC(=O)c4ccc(Cl)nc4)cc3)nc(N(C)C)nc2c1`
2.91

* * *

So I've got a bunch of compounds here, and I need their IC50 values.
tested on: β-catenin/Tcf-4; assay: cells; type: cell-based; details: Tcf 22C11 cells derived from SW480; 24 hours of incubation with compound; ratio Firefly/Renilla luciferase
Provide the reading as a plain figure in nM.

Record `CNc1nc(NCc2ccc(NC(=O)C3CCN(Cc4ccc(F)cc4)CC3)cc2)c2cc(C(F)(F)F)ccc2n1` : what is its IC50 with β-catenin/Tcf-4?
1450

Record `CN(C)c1nc(NCc2ccc(NC(=O)c3ccc(F)cc3)cc2)c2cc(/C=C\c3ccccc3)ccc2n1` : what is its IC50 with β-catenin/Tcf-4?
2940

Record Cc1ccc2nc(N(C)C)nc(NCc3ccc(NC(=O)c4ccc(F)cc4)cc3)c2c1 [Example 40] : what is its IC50 with β-catenin/Tcf-4?
1620

Record `Cc1ccc2nc(N3CCNCC3)nc(NCc3ccc(NC(=O)c4ccc(F)cc4)cc3)c2c1` : what is its IC50 with β-catenin/Tcf-4?
1800

Record `CN(C)c1ccc(-c2ccc3nc(N(C)C)nc(NCc4ccc(NC(=O)c5ccc(F)cc5)cc4)c3c2)nc1` : what is its IC50 with β-catenin/Tcf-4?
229

Record Cc1ccc2nc(N(C)C)nc(NCc3ccc(NC(=O)c4ccc(F)cc4)cc3)c2c1 [Example 38] : what is its IC50 with β-catenin/Tcf-4?
1620

* * *

So I've got a bunch of compounds here, and I need their IC50 values.
system: β-catenin/Tcf-4; experiment: cells; format: cell-based; conditions: Homo sapiens, SW480, 24 h, Tcf 33.13 cells derived from SW480; 24 hours of incubation with compound; ratio Firefly/Renilla luciferase
Provide the reading as a plain figure in nM.

Look at this compound and give its reported IC50. `Cc1ccc2c(NCc3ccc(NC(=O)Nc4ccc(F)cc4)cc3)nc(N(C)C)nc2c1`
2020

Look at this compound and give its reported IC50. `Cc1ccc2c(N[C@@H](C)c3ccc(NC(=O)c4ccc(Cl)nc4)cc3)nc(N(C)C)nc2c1`
319

Look at this compound and give its reported IC50. `CC(C)(C)OC(=O)CNc1nc(NCc2ccc(NC(=O)c3ccc(F)cc3)cc2)c2ccccc2n1`
1070

Look at this compound and give its reported IC50. `Cc1ccc2c(NCc3ccc(NC(=O)C4CCN(Cc5c(F)cc(F)cc5F)CC4)cc3)nc(N(C)C)nc2c1`
203

Look at this compound and give its reported IC50. `CN(C)c1nc(NCc2ccc(NC(=O)c3ccc(F)cc3)cc2)c2ccc(-c3cc4ccccc4o3)cc2n1`
2950

Look at this compound and give its reported IC50. `Cc1ccc2c(NCc3ccc(NC(=O)c4ccc(F)cc4)cc3)nc(N3CCN(c4ncccn4)CC3)nc2c1`
315

* * *

test system: β-catenin/Tcf-4; experiment: cells; format: cell-based; details: Homo sapiens, SW480, 24 h, Tcf 33.13 cells derived from SW480; 24 hours of incubation with compound; ratio Firefly/Renilla luciferase
ASSAY_METRIC: IC50 (nM)
Provide the reading as a plain figure in nM.

Look at this compound and give its reported IC50. C/C=C/c1ccc2c(NCc3ccc(NC(=O)c4ccc(F)cc4)cc3)nc(N(C)C)nc2c1 [Example 96]
511

Look at this compound and give its reported IC50. Cc1cccc2c(NCc3ccc(NC(=O)C4CCN(Cc5ccccc5)CC4)cc3)nc(N(C)C)nc12 [Example 76]
2150

Look at this compound and give its reported IC50. Cc1ccc2c(N[C@H](C)c3ccc(NC(=O)c4ccc(Cl)nc4)cc3)nc(N(C)C)nc2c1 [Example 270]
372

Look at this compound and give its reported IC50. Cc1ccc2nc(N(C)C)nc(N[C@@H](C)c3ccc(NC(=O)c4ccc(Cl)nc4)cc3)c2c1 [Example 274]
1840

Look at this compound and give its reported IC50. Cc1cccc2c(N[C@@H](C)c3ccc(NC(=O)c4ccc(Cl)nc4)cc3)nc(N(C)C)nc12 [Example 273]
3950

Look at this compound and give its reported IC50. Cc1ccc2c(NCc3ccc(NC(=O)C4CCN(Cc5ccccc5)CC4)cc3)nc(N3CCC(N4CCCC4)CC3)nc2c1 [Example 135]
853

Look at this compound and give its reported IC50. CNc1nc(NCc2ccc(NC(=O)c3ccc(Cl)cc3Cl)cc2)c2cc(C)ccc2n1 [Example 19]
12800

Look at this compound and give its reported IC50. CNc1nc(NCc2ccc(NC(=O)c3ccc(C#N)cc3)cc2)c2cccc(C)c2n1 [Example 266]
962

Look at this compound and give its reported IC50. Cc1ccc2c(NCc3ccc(NC(=O)C4CCN(C)CC4)cc3)nc(N(C)C)nc2c1 [Example 243]
1680

Look at this compound and give its reported IC50. CN(C)c1nc(NCc2ccc(NC(=O)c3ccc(F)cc3)cc2)c2cc(CO)ccc2n1 [Example 71]
2340

Look at this compound and give its reported IC50. CC(=O)N1CCCN(c2nc(NCc3ccc(NC(=O)c4ccc(F)cc4)cc3)c3ccc(C)cc3n2)CC1 [Example 223]
2660

Look at this compound and give its reported IC50. Cc1ccc2c(NCc3ccc(NC(=O)C4CCN(Cc5ccc(F)cc5)CC4)cc3)nc(N(C)C)nc2c1 [Example 251]
215

Look at this compound and give its reported IC50. Cc1ccc2c(NCc3ccc(NC(=O)C4CCN(Cc5ccncc5)CC4)cc3)nc(N(C)C)nc2c1 [Example 257]
906

Look at this compound and give its reported IC50. Cc1ccc2nc(N3CCN(c4ccccn4)CC3)nc(NCc3ccc(NC(=O)c4ccc(F)cc4)cc3)c2c1 [Example 55]
3260

Look at this compound and give its reported IC50. Cc1ccc2c(NCc3ccc(NC(=O)c4ccc(Cl)cc4)cc3)nc(N(C)C)nc2c1 [Example 196]
227

Look at this compound and give its reported IC50. CN(C)c1nc(NCc2ccc(NC(=O)c3ccc(F)cc3)cc2)c2ccccc2n1 [Example 113]
766

Look at this compound and give its reported IC50. CNc1nc(NCc2ccc(NC(=O)c3ccc(Br)cc3)cc2)c2ccc(C)cc2n1 [Example 238]
255

Look at this compound and give its reported IC50. CN(C)CC#Cc1ccc2nc(N(C)C)nc(NCc3ccc(NC(=O)c4ccc(F)cc4)cc3)c2c1 [Example 69]
1940

Look at this compound and give its reported IC50. CN(C)c1nc(NCc2ccc(NC(=O)Nc3ccc(F)cc3)cc2)c2ccccc2n1 [Example 182]
4320

Look at this compound and give its reported IC50. CN(C)c1nc(NCc2ccc(NC(=O)c3ccc(F)cc3)cc2)c2ccc(C3CC3)cc2n1 [Example 104]
666

Look at this compound and give its reported IC50. CNc1nc(NCc2ccc(NC(=O)c3ccc(F)cc3)cc2)c2cc(C)cc(C)c2n1 [Example 30]
1870

Look at this compound and give its reported IC50. Cc1ccc2c(NCc3ccc(NC(=O)c4ccc(F)cc4)cc3)nc(N(C)Cc3ccccc3)nc2c1 [Example 203]
579

Look at this compound and give its reported IC50. Cc1ccc2c(NCc3ccc(NC(=O)c4ccc(F)cc4)cc3)nc(N(C)CCc3ccccn3)nc2c1 [Example 222]
650

Look at this compound and give its reported IC50. CCOC(=O)N1CCN(c2nc(NCc3ccc(NC(=O)c4ccc(F)cc4)cc3)c3cc(C)ccc3n2)CC1 [Example 54]
846

Look at this compound and give its reported IC50. CNc1nc(N[C@@H](C)c2ccc(NC(=O)c3ccc(F)cc3)cc2)c2cccc(C)c2n1 [Example 275]
549

Look at this compound and give its reported IC50. CCOC(=O)N1CCN(c2nc(NCc3ccc(NC(=O)c4ccc(F)cc4)cc3)c3ccc(C)cc3n2)CC1 [Example 218]
939

Look at this compound and give its reported IC50. CCN1CCN(c2nc(NCc3ccc(NC(=O)c4ccc(F)cc4)cc3)c3ccc(C)cc3n2)CC1 [Example 227]
736

Look at this compound and give its reported IC50. Cc1ccc2nc(N(C)C)nc(NCc3ccc(NC(=O)C4CCN(Cc5ccccc5)CC4)cc3)c2c1 [Example 148]
1030

Cited source: patent US20090004185A1
